# tested_system: P110γ (Homo sapiens, UniProt P48736)
# Sequence (P48736 whole entry, canonical isoform): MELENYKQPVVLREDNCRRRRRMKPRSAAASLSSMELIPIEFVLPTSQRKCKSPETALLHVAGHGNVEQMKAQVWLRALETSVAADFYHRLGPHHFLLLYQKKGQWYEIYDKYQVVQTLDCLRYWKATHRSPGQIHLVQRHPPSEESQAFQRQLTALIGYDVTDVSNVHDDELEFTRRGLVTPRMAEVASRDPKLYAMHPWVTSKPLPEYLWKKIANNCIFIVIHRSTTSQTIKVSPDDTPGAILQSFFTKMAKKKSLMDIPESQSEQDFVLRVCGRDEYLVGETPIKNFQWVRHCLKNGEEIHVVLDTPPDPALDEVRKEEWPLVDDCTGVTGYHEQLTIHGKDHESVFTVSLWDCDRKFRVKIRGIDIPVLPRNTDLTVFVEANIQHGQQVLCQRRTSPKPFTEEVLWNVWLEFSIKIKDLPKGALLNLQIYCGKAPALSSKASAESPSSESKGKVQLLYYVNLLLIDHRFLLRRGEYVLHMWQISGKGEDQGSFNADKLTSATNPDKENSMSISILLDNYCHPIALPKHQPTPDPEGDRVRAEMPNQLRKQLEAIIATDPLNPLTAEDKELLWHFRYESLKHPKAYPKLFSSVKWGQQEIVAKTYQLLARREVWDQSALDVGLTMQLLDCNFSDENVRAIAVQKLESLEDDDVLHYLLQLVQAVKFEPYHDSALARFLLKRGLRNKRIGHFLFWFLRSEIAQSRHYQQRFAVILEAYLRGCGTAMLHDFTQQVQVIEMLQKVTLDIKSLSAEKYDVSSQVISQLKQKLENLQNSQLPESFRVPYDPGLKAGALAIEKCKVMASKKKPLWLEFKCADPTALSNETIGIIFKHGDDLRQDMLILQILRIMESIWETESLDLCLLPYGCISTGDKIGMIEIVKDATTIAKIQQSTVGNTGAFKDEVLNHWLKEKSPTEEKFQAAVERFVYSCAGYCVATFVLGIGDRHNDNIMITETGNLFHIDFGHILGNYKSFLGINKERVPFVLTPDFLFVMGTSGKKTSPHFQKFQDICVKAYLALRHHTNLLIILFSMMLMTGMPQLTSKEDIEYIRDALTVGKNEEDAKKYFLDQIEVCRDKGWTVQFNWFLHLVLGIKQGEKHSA
# experimental_protocol: Fluorescent (HTRF) determination of PI3K enzyme activity, γ isoform
# Assay type: biochemical
endpoint: inhibition at 1 µM

Input Cc1n[nH]c2cc(-c3nn([C@H](C)c4oc5ccccc5c(=O)c4-c4cccc(F)c4)c4ncnc(N)c34)ccc12 (single isomer, unassigned) [Example 128] . Output inhibition at 1 µM: 25 to 50%

Input CC(c1oc2ccccc2c(=O)c1-c1cccc(F)c1)n1nc(-c2ccc3c(c2)CCO3)c2c(N)ncnc21 (stereo not drawn) [Example 109] . Output inhibition at 1 µM: 25 to 50%

Input Cc1n[nH]c2ccc(-c3nn(C(C)c4oc5ccccc5c(=O)c4-c4cccc(F)c4)c4ncnc(N)c34)cc12 (stereo not drawn) [Example 106] . Output inhibition at 1 µM: 25 to 50%
